- system.tested: T1, human CD276 protein (human, UniProt Q5ZPR3 29-534)
- T1 sequence (looked up): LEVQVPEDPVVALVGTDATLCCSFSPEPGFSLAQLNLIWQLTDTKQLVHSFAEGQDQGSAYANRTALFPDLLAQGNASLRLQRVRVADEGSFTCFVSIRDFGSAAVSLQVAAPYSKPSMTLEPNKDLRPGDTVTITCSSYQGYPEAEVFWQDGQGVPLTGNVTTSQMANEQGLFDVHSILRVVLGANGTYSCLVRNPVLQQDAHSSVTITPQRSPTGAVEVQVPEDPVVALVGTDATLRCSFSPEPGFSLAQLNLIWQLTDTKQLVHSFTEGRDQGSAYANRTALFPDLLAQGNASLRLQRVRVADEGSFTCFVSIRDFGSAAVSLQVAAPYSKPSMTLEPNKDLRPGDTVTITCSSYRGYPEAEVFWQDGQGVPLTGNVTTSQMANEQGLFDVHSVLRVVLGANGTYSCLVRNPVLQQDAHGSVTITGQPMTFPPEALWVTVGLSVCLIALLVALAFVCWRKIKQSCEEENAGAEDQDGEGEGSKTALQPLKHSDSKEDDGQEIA
- test.details: cell-based or functional assay

{"binder": "25-D3-G4-C6 (human IgG1 chimeric antibody) (antibody, V domains shown, human IgG1 chimeric antibody of the mouse clone) VH: EIQLQQTGPELVKPGASVKISCKASGYSFTDYIILWVKQSHGMSLEWIGNINPYYNSTYYNLKFKGKATLTVDKSSSTAYMQLDSLTSEDSAVYYCARDSFDWYFGVWGAGTTVTVSS VL: DVVMTQTPLSLPVSLGDQASISCRSSQSLVHSNGNTYLHWYLQKPGQSPKLLIYKVSNRFSGVPDRFSGSGSGTDFTLKISRVETEDLGIYFCSQSTHVPPLTFGAGTKLELK", "EC50 of antibody induced CDC effect": "2.41 nM"}
{"binder": "25-C8-D7-C5 (human IgG1 chimeric antibody) (antibody, V domains shown, human IgG1 chimeric antibody of the mouse clone) VH: EVQLQESGGGLVKPGGSLKFSCAASGFTFSTYAMSWVRQTPEKRLEWVATISGGGIDTYYPDSVKGRFTISRDNAKNTLYLQMNSLRSEDTAMYYCARQGSKGWGAMDYWGQGTSVTVSS VL: QIVLTQSPAIMSASPGEKVTMTCRASSSVSFMHWYQQKSGTSPKRWIYETSKLASGVPDRFSGSGSGTSYSLTISSMEAEDAATYYCQQWSSNPLTFGAGTKLELK", "EC50 of antibody induced CDC effect": "2.42 nM"}
{"binder": "10-G6-C4-B2 (human IgG1 chimeric antibody) (antibody, V domains shown, human IgG1 chimeric antibody of the mouse clone) VH: EVQLVESGGGLVQPGGSLRLSCATSGFTLSDYYMSWVRQPPGKAPEWLGFMRNKANGYTTEYSASVRGRFTISRDTSQSIIYLQMNTLRAEDGATYYCVRDRDGRPFAYWGQGTLVTVSA VL: DIVMTQSPSSLTVTAGEKVTMSCKSSQSLLNSINQKNFLTWYQQKPGQPPKLLIYWASTRESGVPDRFTGSGSGTDFTLTISSVQAEDLAIYYCQNDYTYPLTFGTGTKLELK", "EC50 of antibody induced CDC effect": "2.74 nM"}
